The compounds listed here are annotated with their Activity at Protein Kinase Assays (% of control), Ros(h).
# TARGET_OR_TEST_SYSTEM: Ros(h) (Homo sapiens, UniProt P08922)
# EXPERIMENT_DESCRIPTION: Protein kinase selectivity panel
# Assay type: biochemical
# EXPERIMENTAL_SETUP: 1.0 μM compound, 10 μM ATP

q: Hi! What's the reported Activity at Protein Kinase Assays (% of control), Ros(h) for CN(C)c1cc2cc(n1)CCCn1cc(c3ccccc31)C1=C(C(=O)NC1=O)c1cn(c3ccccc13)CCC2 on Ros(h) (Homo sapiens, UniProt P08922)?
a: 108 % of control

q: Now consider O=C1NC(=O)C2=C1c1cn(c3ccccc13)CCCc1ccc(c(N3CCCC3)n1)CCCn1cc2c2ccccc21 .
a: 105 % of control

q: Now consider CN(C)c1nc2ccc1CCCCn1cc(c3ccccc31)C1=C(C(=O)NC1=O)c1cn(c3ccccc13)CCC2 .
a: 79 % of control

Continue with the compound presented below.
q: Hi! What's the reported Activity at Protein Kinase Assays (% of control), Ros(h) for O=C1NC(=O)C2=C1c1cn(c3ccccc13)CCCc1cc(nc(N3CCCC3)c1)CCCn1cc2c2ccccc21 on Ros(h) (Homo sapiens, UniProt P08922)?
a: 117 % of control

---

The molecules listed here are annotated with their Activity at Protein Kinase Assays (% of control), CDK2/cyclinA(h).
# TARGET_OR_TEST_SYSTEM: CDK2/cyclinA(h) (Homo sapiens)
# EXPERIMENT_DESCRIPTION: Protein kinase selectivity panel
# Format: biochemical
# EXPERIMENTAL_SETUP: 1.0 μM compound, 10 μM ATP

q: Which Activity at Protein Kinase Assays (% of control), CDK2/cyclinA(h) reading was recorded for the molecule CN(C)c1nc2ccc1CCCCn1cc(c3ccccc31)C1=C(C(=O)NC1=O)c1cn(c3ccccc13)CCC2 ?
a: 120 % of control

q: Now consider CN(C)c1cc2cc(n1)CCCn1cc(c3ccccc31)C1=C(C(=O)NC1=O)c1cn(c3ccccc13)CCC2 .
a: 80 % of control

q: Now consider O=C1NC(=O)C2=C1c1cn(c3ccccc13)CCCc1ccc(c(N3CCCC3)n1)CCCn1cc2c2ccccc21 .
a: 88 % of control

Continue with the molecule presented below.
q: Which Activity at Protein Kinase Assays (% of control), CDK2/cyclinA(h) reading was recorded for the molecule O=C1NC(=O)C2=C1c1cn(c3ccccc13)CCCc1cc(nc(N3CCCC3)c1)CCCn1cc2c2ccccc21 ?
a: 88 % of control

---

# TARGET_OR_TEST_SYSTEM: UniProt Q15349
# Sequence (Q15349 whole entry): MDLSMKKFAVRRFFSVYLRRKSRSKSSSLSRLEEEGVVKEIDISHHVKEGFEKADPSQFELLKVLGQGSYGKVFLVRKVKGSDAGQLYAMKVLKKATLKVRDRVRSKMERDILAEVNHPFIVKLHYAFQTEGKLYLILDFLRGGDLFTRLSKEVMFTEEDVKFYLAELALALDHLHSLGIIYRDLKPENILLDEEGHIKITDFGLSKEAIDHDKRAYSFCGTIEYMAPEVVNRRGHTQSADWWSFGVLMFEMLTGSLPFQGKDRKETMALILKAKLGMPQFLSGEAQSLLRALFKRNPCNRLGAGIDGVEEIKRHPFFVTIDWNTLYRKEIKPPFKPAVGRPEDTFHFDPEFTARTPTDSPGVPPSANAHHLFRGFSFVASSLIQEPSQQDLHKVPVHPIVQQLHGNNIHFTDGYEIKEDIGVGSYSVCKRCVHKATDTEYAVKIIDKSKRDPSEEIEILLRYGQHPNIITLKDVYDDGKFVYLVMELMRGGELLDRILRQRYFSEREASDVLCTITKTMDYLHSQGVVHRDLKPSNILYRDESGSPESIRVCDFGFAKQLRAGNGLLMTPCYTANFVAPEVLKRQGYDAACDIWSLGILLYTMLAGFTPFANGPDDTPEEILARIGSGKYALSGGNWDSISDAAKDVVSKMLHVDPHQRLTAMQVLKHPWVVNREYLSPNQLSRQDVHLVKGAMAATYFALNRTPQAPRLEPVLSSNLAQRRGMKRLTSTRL
# EXPERIMENT_DESCRIPTION: Protein kinase selectivity panel
# Type: biochemical
# EXPERIMENTAL_SETUP: 1.0 μM compound, 10 μM ATP
# Description: Protein kinase selectivity assays were performed as described in the scientific literature (Davies, S. P., et al., Biochem. J. 2000, 351, 95-105). Briefly, protein kinases were assayed for their ability to phosphorylate the appropriate peptide/protein substrates in the presence of 1.0 μM compound. Assays were done using 10 μM ATP and were linear with respect to time. […]
PROPERTY_LABEL: Activity at Protein Kinase Assays (% of control), Rsk3(h)

q: Which Activity at Protein Kinase Assays (% of control), Rsk3(h) reading was recorded for the compound O=C1NC(=O)C2=C1c1cn(c3ccccc13)CCCc1ccc(c(N3CCCC3)n1)CCCn1cc2c2ccccc21 [Cpd 7] ?
a: 25 % of control

q: Now consider CN(C)c1nc2ccc1CCCCn1cc(c3ccccc31)C1=C(C(=O)NC1=O)c1cn(c3ccccc13)CCC2 [Cpd 1] .
a: 33 % of control

q: Now consider CN(C)c1cc2cc(n1)CCCn1cc(c3ccccc31)C1=C(C(=O)NC1=O)c1cn(c3ccccc13)CCC2 [Cpd 2] .
a: 5 % of control

q: Now consider O=C1NC(=O)C2=C1c1cn(c3ccccc13)CCCc1cc(nc(N3CCCC3)c1)CCCn1cc2c2ccccc21 [Cpd 6] .
a: 5 % of control

---

The compounds listed here are annotated with their Activity at Protein Kinase Assays (% of control), ALK(h).
# TARGET_OR_TEST_SYSTEM: ALK(h) (Homo sapiens)
# Sequence (Q9UM73 19-1620): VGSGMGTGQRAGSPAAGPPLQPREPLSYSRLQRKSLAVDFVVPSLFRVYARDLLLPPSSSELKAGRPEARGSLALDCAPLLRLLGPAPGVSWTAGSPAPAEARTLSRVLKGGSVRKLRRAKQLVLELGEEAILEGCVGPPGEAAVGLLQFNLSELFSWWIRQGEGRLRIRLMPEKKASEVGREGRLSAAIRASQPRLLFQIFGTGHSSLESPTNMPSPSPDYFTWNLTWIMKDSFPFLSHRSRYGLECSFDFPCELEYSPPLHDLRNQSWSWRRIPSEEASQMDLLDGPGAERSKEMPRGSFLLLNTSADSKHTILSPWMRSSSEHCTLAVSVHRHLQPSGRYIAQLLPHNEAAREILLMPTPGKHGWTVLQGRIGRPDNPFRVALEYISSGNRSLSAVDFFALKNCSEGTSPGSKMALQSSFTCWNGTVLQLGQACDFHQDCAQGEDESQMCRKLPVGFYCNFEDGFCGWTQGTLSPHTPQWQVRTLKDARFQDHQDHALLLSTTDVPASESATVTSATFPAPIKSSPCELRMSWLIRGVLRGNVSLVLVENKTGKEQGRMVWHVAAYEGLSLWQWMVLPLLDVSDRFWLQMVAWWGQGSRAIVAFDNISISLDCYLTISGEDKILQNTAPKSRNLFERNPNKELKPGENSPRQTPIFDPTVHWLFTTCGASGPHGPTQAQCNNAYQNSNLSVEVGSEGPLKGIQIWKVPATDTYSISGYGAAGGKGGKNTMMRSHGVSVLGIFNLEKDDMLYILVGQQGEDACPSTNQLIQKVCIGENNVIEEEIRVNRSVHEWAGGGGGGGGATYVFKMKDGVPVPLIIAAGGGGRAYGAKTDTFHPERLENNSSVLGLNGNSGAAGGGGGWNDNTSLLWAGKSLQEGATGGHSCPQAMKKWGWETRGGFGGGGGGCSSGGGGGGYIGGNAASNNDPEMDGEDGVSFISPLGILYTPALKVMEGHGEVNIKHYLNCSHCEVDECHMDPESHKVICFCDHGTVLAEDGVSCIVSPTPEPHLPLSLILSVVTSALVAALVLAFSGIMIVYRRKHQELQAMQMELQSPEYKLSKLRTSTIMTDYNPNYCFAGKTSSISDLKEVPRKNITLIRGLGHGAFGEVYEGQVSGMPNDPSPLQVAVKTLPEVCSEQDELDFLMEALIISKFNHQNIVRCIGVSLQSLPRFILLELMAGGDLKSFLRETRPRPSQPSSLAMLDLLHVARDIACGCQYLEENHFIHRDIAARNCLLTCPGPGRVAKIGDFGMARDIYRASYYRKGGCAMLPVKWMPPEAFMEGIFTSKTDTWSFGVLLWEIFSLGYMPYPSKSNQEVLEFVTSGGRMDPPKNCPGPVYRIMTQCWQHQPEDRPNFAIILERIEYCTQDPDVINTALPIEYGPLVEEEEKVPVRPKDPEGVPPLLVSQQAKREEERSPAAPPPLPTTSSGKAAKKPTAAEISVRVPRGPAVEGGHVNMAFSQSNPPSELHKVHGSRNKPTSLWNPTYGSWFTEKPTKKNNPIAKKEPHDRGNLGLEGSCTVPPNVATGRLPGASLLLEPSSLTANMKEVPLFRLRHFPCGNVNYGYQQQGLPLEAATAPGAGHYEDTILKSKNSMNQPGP
# EXPERIMENT_DESCRIPTION: Protein kinase selectivity panel
# Type: biochemical
# EXPERIMENTAL_SETUP: 1.0 μM compound, 10 μM ATP

Below, each entry is followed by its recorded Activity at Protein Kinase Assays (% of control), ALK(h) result.
q: Which Activity at Protein Kinase Assays (% of control), ALK(h) reading was recorded for the compound O=C1NC(=O)C2=C1c1cn(c3ccccc13)CCCc1ccc(c(N3CCCC3)n1)CCCn1cc2c2ccccc21 [Cpd 7] ?
a: 74 % of control

q: Now consider CN(C)c1cc2cc(n1)CCCn1cc(c3ccccc31)C1=C(C(=O)NC1=O)c1cn(c3ccccc13)CCC2 [Cpd 2] .
a: 55 % of control

q: Now consider O=C1NC(=O)C2=C1c1cn(c3ccccc13)CCCc1cc(nc(N3CCCC3)c1)CCCn1cc2c2ccccc21 [Cpd 6] .
a: 58 % of control

Continue with the compound presented below.
q: Which Activity at Protein Kinase Assays (% of control), ALK(h) reading was recorded for the compound CN(C)c1nc2ccc1CCCCn1cc(c3ccccc31)C1=C(C(=O)NC1=O)c1cn(c3ccccc13)CCC2 [Cpd 1] ?
a: 103 % of control

---

# TARGET_OR_TEST_SYSTEM: PRK2(h) (Homo sapiens)
# Sequence (Q16513 whole entry): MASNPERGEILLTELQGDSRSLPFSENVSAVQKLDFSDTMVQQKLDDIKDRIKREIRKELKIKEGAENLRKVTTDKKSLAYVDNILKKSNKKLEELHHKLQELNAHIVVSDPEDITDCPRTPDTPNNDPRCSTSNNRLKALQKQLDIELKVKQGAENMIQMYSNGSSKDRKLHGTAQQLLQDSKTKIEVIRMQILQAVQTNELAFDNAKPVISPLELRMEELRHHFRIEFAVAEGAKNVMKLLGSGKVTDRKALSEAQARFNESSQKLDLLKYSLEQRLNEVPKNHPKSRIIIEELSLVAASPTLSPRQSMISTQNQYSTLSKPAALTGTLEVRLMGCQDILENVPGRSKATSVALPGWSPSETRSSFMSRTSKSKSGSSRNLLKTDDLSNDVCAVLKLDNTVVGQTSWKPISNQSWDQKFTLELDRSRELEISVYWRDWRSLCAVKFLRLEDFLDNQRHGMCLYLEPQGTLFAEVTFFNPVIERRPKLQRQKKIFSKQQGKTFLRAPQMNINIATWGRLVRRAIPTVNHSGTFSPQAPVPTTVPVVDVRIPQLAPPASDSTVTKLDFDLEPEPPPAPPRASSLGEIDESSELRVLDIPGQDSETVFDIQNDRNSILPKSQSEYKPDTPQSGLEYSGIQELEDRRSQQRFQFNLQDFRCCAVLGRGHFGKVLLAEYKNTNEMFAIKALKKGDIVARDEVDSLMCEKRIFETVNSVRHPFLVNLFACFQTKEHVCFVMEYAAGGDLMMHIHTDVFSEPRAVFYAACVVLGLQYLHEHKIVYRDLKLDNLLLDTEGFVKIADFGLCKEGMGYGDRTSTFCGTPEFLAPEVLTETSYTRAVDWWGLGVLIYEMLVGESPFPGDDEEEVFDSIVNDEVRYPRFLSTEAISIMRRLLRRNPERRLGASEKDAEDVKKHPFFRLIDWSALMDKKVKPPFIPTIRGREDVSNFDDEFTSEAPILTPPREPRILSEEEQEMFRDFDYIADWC
# EXPERIMENT_DESCRIPTION: Protein kinase selectivity panel
# Type: biochemical
# EXPERIMENTAL_SETUP: 1.0 μM compound, 10 μM ATP
The compounds listed here are annotated with their Activity at Protein Kinase Assays (% of control), PRK2(h).

Below, each entry is followed by its recorded Activity at Protein Kinase Assays (% of control), PRK2(h) result.
q: Which Activity at Protein Kinase Assays (% of control), PRK2(h) reading was recorded for the compound CN(C)c1nc2ccc1CCCCn1cc(c3ccccc31)C1=C(C(=O)NC1=O)c1cn(c3ccccc13)CCC2 [Cpd 1] ?
a: 106 % of control

q: Now consider O=C1NC(=O)C2=C1c1cn(c3ccccc13)CCCc1ccc(c(N3CCCC3)n1)CCCn1cc2c2ccccc21 [Cpd 7] .
a: 126 % of control

q: Now consider O=C1NC(=O)C2=C1c1cn(c3ccccc13)CCCc1cc(nc(N3CCCC3)c1)CCCn1cc2c2ccccc21 [Cpd 6] .
a: 110 % of control

Continue with the compound presented below.
q: Which Activity at Protein Kinase Assays (% of control), PRK2(h) reading was recorded for the compound CN(C)c1cc2cc(n1)CCCn1cc(c3ccccc31)C1=C(C(=O)NC1=O)c1cn(c3ccccc13)CCC2 [Cpd 2] ?
a: 113 % of control

---

# TARGET_OR_TEST_SYSTEM: EGFR(h) (Homo sapiens, UniProt P00533)
# Sequence (P00533 25-1210): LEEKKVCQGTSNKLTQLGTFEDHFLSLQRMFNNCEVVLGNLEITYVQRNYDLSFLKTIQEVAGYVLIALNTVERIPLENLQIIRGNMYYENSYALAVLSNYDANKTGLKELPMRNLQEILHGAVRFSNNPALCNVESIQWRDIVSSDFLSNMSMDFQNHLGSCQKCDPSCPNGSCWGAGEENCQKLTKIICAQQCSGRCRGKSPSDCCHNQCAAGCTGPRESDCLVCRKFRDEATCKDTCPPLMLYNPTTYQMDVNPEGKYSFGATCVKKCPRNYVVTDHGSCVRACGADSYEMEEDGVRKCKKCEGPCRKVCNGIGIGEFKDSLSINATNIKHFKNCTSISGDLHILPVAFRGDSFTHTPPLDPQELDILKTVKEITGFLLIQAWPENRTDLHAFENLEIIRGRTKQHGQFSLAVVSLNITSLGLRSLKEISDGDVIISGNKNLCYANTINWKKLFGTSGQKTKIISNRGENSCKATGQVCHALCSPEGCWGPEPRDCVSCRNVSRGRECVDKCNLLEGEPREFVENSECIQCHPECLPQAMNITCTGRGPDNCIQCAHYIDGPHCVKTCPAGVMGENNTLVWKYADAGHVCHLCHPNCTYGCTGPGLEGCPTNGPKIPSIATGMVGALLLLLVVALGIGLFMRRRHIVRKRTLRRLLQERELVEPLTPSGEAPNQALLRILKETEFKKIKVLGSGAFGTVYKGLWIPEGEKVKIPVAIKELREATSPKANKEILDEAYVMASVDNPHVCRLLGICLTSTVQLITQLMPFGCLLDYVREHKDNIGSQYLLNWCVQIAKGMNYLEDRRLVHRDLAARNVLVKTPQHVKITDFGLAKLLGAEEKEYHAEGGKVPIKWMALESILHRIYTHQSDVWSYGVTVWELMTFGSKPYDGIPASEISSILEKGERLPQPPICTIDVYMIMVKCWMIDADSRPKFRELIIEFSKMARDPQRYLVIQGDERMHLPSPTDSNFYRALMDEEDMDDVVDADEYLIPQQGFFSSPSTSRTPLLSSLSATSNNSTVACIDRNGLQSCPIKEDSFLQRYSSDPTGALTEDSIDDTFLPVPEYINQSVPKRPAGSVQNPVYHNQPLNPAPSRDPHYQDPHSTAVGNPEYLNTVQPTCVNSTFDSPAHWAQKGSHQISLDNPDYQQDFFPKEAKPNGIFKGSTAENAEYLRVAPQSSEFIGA
# EXPERIMENT_DESCRIPTION: Protein kinase selectivity panel
# Type: biochemical
# EXPERIMENTAL_SETUP: 1.0 μM compound, 10 μM ATP
PROPERTY_LABEL: Activity at Protein Kinase Assays (% of control), EGFR(h)

Below, each entry is followed by its recorded Activity at Protein Kinase Assays (% of control), EGFR(h) result.
q: Which Activity at Protein Kinase Assays (% of control), EGFR(h) reading was recorded for the compound O=C1NC(=O)C2=C1c1cn(c3ccccc13)CCCc1cc(nc(N3CCCC3)c1)CCCn1cc2c2ccccc21 [Cpd 6] ?
a: 108 % of control

q: Now consider O=C1NC(=O)C2=C1c1cn(c3ccccc13)CCCc1ccc(c(N3CCCC3)n1)CCCn1cc2c2ccccc21 [Cpd 7] .
a: 104 % of control

Continuing:
q: Which Activity at Protein Kinase Assays (% of control), EGFR(h) reading was recorded for the compound CN(C)c1cc2cc(n1)CCCn1cc(c3ccccc31)C1=C(C(=O)NC1=O)c1cn(c3ccccc13)CCC2 [Cpd 2] ?
a: 96 % of control

q: Now consider CN(C)c1nc2ccc1CCCCn1cc(c3ccccc31)C1=C(C(=O)NC1=O)c1cn(c3ccccc13)CCC2 [Cpd 1] .
a: 94 % of control

---

# TARGET_OR_TEST_SYSTEM: MEK1(h) (Homo sapiens, UniProt Q02750)
# Sequence (Q02750 whole entry): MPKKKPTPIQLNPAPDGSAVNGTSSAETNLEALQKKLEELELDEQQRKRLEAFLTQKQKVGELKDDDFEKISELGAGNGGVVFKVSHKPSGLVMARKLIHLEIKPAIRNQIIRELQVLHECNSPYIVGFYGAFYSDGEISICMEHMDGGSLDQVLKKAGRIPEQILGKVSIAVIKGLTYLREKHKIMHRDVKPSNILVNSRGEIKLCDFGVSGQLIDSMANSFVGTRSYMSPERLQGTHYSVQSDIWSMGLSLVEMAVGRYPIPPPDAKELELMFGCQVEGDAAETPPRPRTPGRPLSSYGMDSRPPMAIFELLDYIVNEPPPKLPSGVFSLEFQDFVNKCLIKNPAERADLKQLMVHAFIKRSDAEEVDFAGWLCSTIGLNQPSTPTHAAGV
# EXPERIMENT_DESCRIPTION: Protein kinase selectivity panel
# Type: biochemical
# EXPERIMENTAL_SETUP: 1.0 μM compound, 10 μM ATP
PROPERTY_LABEL: Activity at Protein Kinase Assays (% of control), MEK1(h)

q: Which Activity at Protein Kinase Assays (% of control), MEK1(h) reading was recorded for the compound O=C1NC(=O)C2=C1c1cn(c3ccccc13)CCCc1cc(nc(N3CCCC3)c1)CCCn1cc2c2ccccc21 [Cpd 6] ?
a: 91 % of control

q: Now consider O=C1NC(=O)C2=C1c1cn(c3ccccc13)CCCc1ccc(c(N3CCCC3)n1)CCCn1cc2c2ccccc21 [Cpd 7] .
a: 98 % of control

q: Now consider CN(C)c1nc2ccc1CCCCn1cc(c3ccccc31)C1=C(C(=O)NC1=O)c1cn(c3ccccc13)CCC2 [Cpd 1] .
a: 76 % of control

Continue with the compound presented below.
q: Which Activity at Protein Kinase Assays (% of control), MEK1(h) reading was recorded for the compound CN(C)c1cc2cc(n1)CCCn1cc(c3ccccc31)C1=C(C(=O)NC1=O)c1cn(c3ccccc13)CCC2 [Cpd 2] ?
a: 93 % of control
